Molecular target: melanocortin-4 receptor (Homo sapiens, UniProt P32245)
Construct: expressed in transfected cells; host or cells: HEK293 cells (membrane preparations)
Sequence (P32245 whole entry): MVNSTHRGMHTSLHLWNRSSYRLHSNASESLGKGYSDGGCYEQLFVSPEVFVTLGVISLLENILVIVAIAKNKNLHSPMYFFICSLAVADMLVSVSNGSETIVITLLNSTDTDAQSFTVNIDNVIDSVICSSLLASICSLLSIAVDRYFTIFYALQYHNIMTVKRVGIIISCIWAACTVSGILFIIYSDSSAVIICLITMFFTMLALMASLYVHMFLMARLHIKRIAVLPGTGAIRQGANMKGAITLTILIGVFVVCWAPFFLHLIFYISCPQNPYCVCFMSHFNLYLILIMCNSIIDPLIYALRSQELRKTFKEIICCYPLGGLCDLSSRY
Test: Functional assay (cAMP fluorescence polarization, membrane based, agonistic activity)
Assay type: biochemical
Details: 2 h; read-out: % activation functional assay
Give Emax for every item shown.
Numbers only, in %.

Here are 2 compounds together with their reported answers.
CC(C)CCN(CCC(C)C)C(=O)c1ccc2nc(-c3ncco3)c(CCCN(C)C(C)C)n2c1    1
COc1cccc(-c2nc3ccc(C(=O)N(CCC(C)C)CCC(C)C)cn3c2CCCN2CC[C@@H](O)C2)c1    -18

Fill in Emax for each of the 7 compounds listed.
1. CC(C)CCN(CCC(C)C)C(=O)c1ccc2nc(-c3ccc(Cl)cc3)c(CN3CCC(N)CC3)n2c1
2. Cc1nc(C)c(-c2nc3ccc(C(=O)N(CCC(C)C)CCC(C)C)cn3c2CCCN2CCCC2)o1
3. CC(C)CCN(CCC(C)C)C(=O)c1ccc2nc(-c3ncco3)c(CCCN3CCC[C@@H]3C)n2c1
4. O=C(c1ccc2nc(-c3ccc(=O)[nH]c3)c(CCCN3CCCC3)n2c1)N(CCC1CC1)CCC1CC1
5. COc1ccc(-c2nc3ccc(C(=O)N(CCC(C)C)CCC(C)C)cn3c2CCCN(C)C)cc1
6. O=C(c1ccc2nc(-c3ccc(=O)n(CCO)c3)c(CCCN3CCCC3)n2c1)N(CCC1CC1)CCC1CC1
7. CC(C)CCN(CCC(C)C)C(=O)c1ccc2nc(-c3nccs3)c(CCCN3CCCC3)n2c1

### Response
1: 0; 2: 0; 3: -2; 4: -12; 5: 0; 6: -17; 7: 0

Fill in Emax for each of the 2 compounds listed.
1. CC1CCCN1CCCc1c(-c2ccc(OCCO)nc2)nc2ccc(C(=O)N(CCC3CC3)CCC3CC3)cn12 (stereo not drawn)
2. CC(C)CCN(CCC(C)C)C(=O)c1ccc2nc(-c3ccc(=O)n(CCCO)c3)c(CCCN3CCCC3)n2c1

### Response
1. -9
2. -29

Fill in Emax for each of the 4 compounds listed.
1. CC(C)CCN(CCC(C)C)C(=O)c1ccc2nc(-c3ncco3)c(CCCN3CCC[C@@H]3CO)n2c1
2. CC(C)CCN(CCC(C)C)C(=O)c1ccc2nc(-c3ncco3)c(CCCN3CC[C@H](F)C3)n2c1
3. CC(C)CCN(CCC(C)C)C(=O)c1ccc2nc(-c3ccc4c(c3)OCCO4)c(CCCN3CCCCC3)n2c1
4. CC(C)CCN(CCC(C)C)C(=O)c1ccc2nc(-c3ccc(Cl)cc3)c(CCCCN3CCCC3)n2c1

### Response
1. 0
2. 2
3. 0
4. 0

----------
Molecular target: melanocortin-4 receptor (Homo sapiens, UniProt P32245)
Construct: expressed in transfected cells; host or cells: HEK293 cells (membrane preparations)
Assay: Membrane binding assay (fluorescence polarization, competition with fluorescence labeled NDP-alpha-MSH)
Conditions: read-out: hMC-4R binding assay IC50/μM
Quantity Measured: IC50

Here are 3 compounds together with their reported answers.
Cc1ccc(-c2nc3ccc(C(=O)N(CCC(C)C)CCC(C)C)cn3c2CCCN(C)C)nc1    > 1 µM
CC(C)CCN(CCC(C)C)C(=O)c1ccc2nc(-c3cc(O)ccn3)c(CCCN(C)C)n2c1    0.1 to 1 µM
CC(C)CCN(CCC(C)C)C(=O)c1ccc2nc(-c3ccc(C(F)(F)F)cc3)c(CN3CCC(N)CC3)n2c1    0.1 to 1 µM

Fill in IC50 for each of the 7 compounds listed.
1. CC(C)CCN(CCC(C)C)C(=O)c1ccc2nc(-c3ccc(Cl)nc3)c(CCCN3CCCC3)n2c1
2. CCCN(CC1CC1)C(=O)c1ccc2nc(-c3ccc(C#N)cc3)c(CCCN3CCCC3)n2c1
3. CC(C)CCN(CCC(C)C)C(=O)c1ccc2nc(-c3ccc(OCCO)nc3)c(CCCN3CCCC3C)n2c1 (stereo not drawn)
4. CC(C)CCN(CCC(C)C)C(=O)c1ccc2nc(-c3ccc(-c4ccccn4)s3)c(CN3CCC(N)CC3)n2c1
5. CC(C)CCN(CCC(C)C)C(=O)c1ccc2nc(-c3nccs3)c(CN3CCC(N)CC3)n2c1
6. COc1cccc(-c2nc3ccc(C(=O)N(CCC(C)C)CCC(C)C)cn3c2CCCN2CC[C@@H](O)C2)c1
7. CC(C)CC1CCCN1C(=O)c1ccc2nc(-c3ccc(C#N)cc3)c(CCCN3CCCC3)n2c1 (stereo not drawn)

### Response
["< 0.1 µM", "0.1 to 1 µM", "< 0.1 µM", "0.1 to 1 µM", "> 1 µM", "< 0.1 µM", "0.1 to 1 µM"]

Fill in IC50 for each of the 4 compounds listed.
1. COc1cccc(-c2nc3ccc(C(=O)N(CCC(C)C)CCC(C)C)cn3c2CCCN2CC[C@@H](F)C2)c1
2. CC(C)CCN(CCC(C)C)C(=O)c1ccc2nc(-c3ccc(C#N)cc3)c(CN3CCC(N(C)C)CC3)n2c1
3. CC(C)CCN(CCC(C)C)C(=O)c1ccc2nc(-c3ccc(=O)n(CC(C)O)c3)c(CCCN3CCCC3)n2c1 (stereo not drawn)
4. CC(C)CCN(CCC(C)C)C(=O)c1ccc2nc(-c3ncco3)c(CCCN3CCC(O)CC3)n2c1

### Response
["0.1 to 1 µM", "0.1 to 1 µM", "0.1 to 1 µM", "< 0.1 µM"]

### Prompt Please report the measured IC50 for O=C(c1ccc2nc(-c3ccc(=O)[nH]c3)c(CCCN3CCCC3)n2c1)N(CCC1CC1)CCC1CC1
### Response 0.1 to 1 µM
